Reported residual kinase activity, PKA values for a set of compounds
measurement-target: PKA (Homo sapiens, UniProt P17612)
test-description: Kinase profiling PKA
Format: biochemical
experimental-parameters: 100 micromolar inhibitor concentration; 100 is no change
recorded-metric: residual kinase activity, PKA

| structure-notation | reported-result |
| --- | --- |
| CC(=O)Nc1cccc(C(=O)Nc2nc3cc(O)ccc3s2)c1 | 87 |
| O=C(Nc1nc2ccc(O)cc2s1)c1ccccn1 | 97 |
| O=C(Nc1nc2ccc(C(F)(F)F)cc2s1)c1ccccc1 | 96 |
| CC(=O)Nc1ccccc1C(=O)Nc1nc2ccc(O)cc2s1 | 88 |
| O=C(Nc1nc2cc(O)ccc2s1)c1cccnc1 | 102 |
